- tested.target: human OX2R (Homo sapiens)
- Construct: expressed in transfected cells; host or cells: Chinese hamster ovary (CHO) cells, kept under G418 selection
- assay.text: IPOne (IP-One) orexin receptor agonist assay in CHO cells expressing human OX2R
- Assay type: cell-based
- run.conditions: human OX2R; percentage of sample raw value/mean max effect (reference compound at 1 uM with 100% activity)
measure: % max agonist effect (Emax) (%)

Example results:
Cn1ncnc1N1CC[C@H](NS(C)(=O)=O)[C@@H]1CO[C@H]1CC[C@@H](c2ccccc2)CC1; 101.6
COc1ccnc(N2CC[C@H](NS(C)(=O)=O)[C@@H]2CO[C@H]2CC[C@@H](c3ccccc3)CC2)c1F; 93.7
CS(=O)(=O)N[C@H]1CCN(c2ccc(C(F)F)nc2)[C@H]1CO[C@H]1CC[C@@H](c2ccccc2)CC1; 100.7
CS(=O)(=O)N[C@H]1CCN(c2ccc(OC(F)F)cn2)[C@H]1CO[C@H]1CC[C@@H](c2ccccc2)CC1; 104.3
Cc1ccnc(N2CC[C@H](NS(C)(=O)=O)[C@@H]2CO[C@H]2CC[C@@H](c3ccccc3)CC2)c1; 98

P. C[C@@H]1C[C@H](NS(C)(=O)=O)[C@H](CO[C@H]2CC[C@@H](c3ccccc3)CC2)N1c1nnnn1C
Q. CC(C)(O)c1cc(N2CC[C@H](NS(C)(=O)=O)[C@@H]2CO[C@H]2CC[C@@H](c3ccccc3)CC2)ccn1
Would you kindly point out which of P and Q has the smaller % max agonist effect (Emax) figure? Identify your pick by its label. Q

* * *

- tested.target: human OX2R (Homo sapiens)
- Sequence (O43614 1-444): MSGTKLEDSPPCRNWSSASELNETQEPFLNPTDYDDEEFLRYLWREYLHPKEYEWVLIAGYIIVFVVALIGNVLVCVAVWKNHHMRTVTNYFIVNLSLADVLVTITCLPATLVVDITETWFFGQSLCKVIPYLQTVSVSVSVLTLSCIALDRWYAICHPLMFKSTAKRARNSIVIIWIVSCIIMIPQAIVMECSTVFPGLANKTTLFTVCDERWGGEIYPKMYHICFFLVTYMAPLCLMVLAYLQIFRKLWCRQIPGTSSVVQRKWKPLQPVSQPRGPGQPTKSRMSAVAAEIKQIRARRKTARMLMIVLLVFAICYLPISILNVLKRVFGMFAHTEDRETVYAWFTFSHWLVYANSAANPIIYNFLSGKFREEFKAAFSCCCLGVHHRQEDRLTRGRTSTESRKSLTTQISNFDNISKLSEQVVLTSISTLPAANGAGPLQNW
- assay.text: IPOne (IP-One) orexin receptor agonist assay in CHO cells expressing human OX2R
- run.conditions: CHO cells expressing human OX2R; IP-One detection; 2 hours incubation; four parameter logistic fit; read-out: OX2R Potency, EC50
pEC50: −log10 of the molar value.
measure: pEC50

Example results:
Cc1ccnc(N2CC[C@H](NS(C)(=O)=O)[C@@H]2CO[C@H]2CC[C@@H](c3ccccc3)CC2)n1 [Example 67]; 5.66
CS(=O)(=O)N[C@H]1CCN(c2cc(=O)c(F)cn2CC(F)F)[C@H]1CO[C@H]1CC[C@@H](c2ccccc2)CC1 [Example 89]; 6.96
CS(=O)(=O)N[C@H]1CCN(c2cnc(C(F)(F)F)nc2)[C@H]1CO[C@H]1CC[C@@H](c2ccccc2)CC1 [Example 41]; 6.76

P. CS(=O)(=O)N[C@H]1CCN(c2ncccc2C#N)[C@H]1CO[C@H]1CC[C@@H](c2ccccc2)CC1 [Example 136]
Q. CS(=O)(=O)N[C@H]1CCN(c2cc(O)c(Cl)cn2)[C@H]1CO[C@H]1CC[C@@H](c2ccccc2)CC1 [Example 113]
R. CS(=O)(=O)N[C@H]1CCN(c2ncc(CO)s2)[C@H]1CO[C@H]1CC[C@@H](c2ccccc2)CC1 [Example 102]
S. COc1ncc(N2CC[C@H](NS(C)(=O)=O)[C@@H]2CO[C@H]2CC[C@@H](c3ccccc3)CC2)cc1C [Example 55]
Given 4 compounds, produce a descending ranking by pEC50. Reply format: the labels, ordered as requested. Q, P, S, R
(Q: 8.96, P: 6.79, S: 5.62, R: 5.32)
